Examples of compounds with documented EC50 follow.
# MEASUREMENT_NOTES: Disruption of PP1 holoenzyme (unknown origin) interaction with protein inhibitor 2 assessed as increase in PP1 phosphatase activity by measuring increase in fluorescence using DiFMUP as substrate enzyme preincubated with I2 for ten mins followed by compound treatment for 20 mins followed by substrate addition by fluorescence based analysis
# Set-up: species or system Homo sapiens
Where a SMILES comes first, the peptide text is derived from it. [ ]: non-standard residue; d: D form. hArg = N=C(N)NCCCC[C@H](N)C(=O)O; β3hR = N=C(N)NCCC[C@H](N)CC(=O)O; β3hK = NCCCC[C@H](N)CC(=O)O

CC(C)[C@H](NC(=O)[C@@H](N)CCCNC(=N)N)C(=O)N[C@@H](CC(=O)O)C(=O)N[C@@H](Cc1ccccc1)C(=O)O (H-RVDF-OH) = > 500 µM
CC(C)[C@H](NC(=O)[C@@H](N)CCCNC(=N)N)C(=O)N[C@@H](Cc1ccccc1)C(=O)N[C@@H](Cc1ccccc1)C(=O)O (H-RVFF-OH) = > 500 µM
CC(C)[C@H](NC(=O)[C@H](CCCNC(=N)N)NC(=O)C[C@@H](N)CCCNC(=N)N)C(=O)N[C@@H](Cc1cnc[nH]1)C(=O)N[C@@H](Cc1ccccc1)C(N)=O (H-[β3hR]RVHF-NH2) = 3.2 µM
CC(C)[C@H](NC(=O)[C@H](N)CCCNC(=N)N)C(=O)N[C@H](C(=O)N[C@@H](Cc1ccccc1)C(=O)O)[C@@H](C)O (H-[dR]VTF-OH) = > 500 µM
CC(C)[C@@H](NC(=O)[C@H](NC(=O)[C@H](N)Cc1ccccc1)[C@H](C)O)C(=O)N[C@H](CCCNC(=N)N)C(=O)O (H-[dF][dT][dV][dR]-OH) = > 500 µM
CC(C)[C@H](NC(=O)[C@H](CCCNC(=N)N)NC(=O)C[C@@H](N)CCCCN)C(=O)N[C@@H](Cc1c[nH]cn1)C(=O)N[C@@H](Cc1ccccc1)C(N)=O (H-[β3hK]RVHF-NH2) = 9.8 µM

Prompt: Would you kindly share the measured EC50 for CC(C)[C@H](NC(=O)[C@@H](N)CCCNC(=N)N)C(=O)N[C@H](C(=O)N[C@@H](Cc1ccc(O)cc1)C(=O)O)[C@@H](C)O (H-RVTY-OH) ?
Completion: > 500 µM

Prompt: Again, but for CC(C)[C@H](NC(=O)[C@H](CCCCNC(=N)N)NC(=O)[C@@H](N)CCCCN)C(=O)N[C@@H](Cc1cnc[nH]1)C(=O)N[C@@H](Cc1ccccc1)C(N)=O (H-K[hArg]VHF-NH2)
Completion: 1.7 µM
